Experiment: Oral exposure
Format: in vivo
Conditions: rat, 1 mg/kg, male Fischer 344 rats, fasted, gavage, suspension 1 mg/mL at 1 mL/kg, plasma
Measurement Type: Cmax (ng/mL)
// note: answer is a bare numeric in ng/mL

Can you share its Cmax? I mean this molecule: CS(=O)(=O)O.Cc1ccc(-n2nc(C3(C)CC3)cc2NC(=O)Nc2cnc(OC3CCN(C(=O)C4(C)CC4)CC3)c3ccccc23)cc1
9390

###

Biological target: p38 kinase enzyme
Test: Inhibition of p38 kinase (33P-ATP, EGF peptide 661-681 substrate)
Conditions: 40 minutes at 30° C.
Measurement Type: IC50 (µM)
Reply numerically in µM, unit not repeated.

Item CS(=O)(=O)O.Cc1ccc(-n2nc(C3(C)CC3)cc2NC(=O)Nc2cnc(OC3CCN(C(=O)C4(C)CC4)CC3)c3ccccc23)cc1 [Example 12, mesylate] has what recorded IC50?
0.034
